Assay: chemical genetic growth profiling, strain panel (AID 1159580);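 note: tested at 20 µM; growth read once vehicle control cultures reached saturation at 30 °C; 1 = growth at the plate median or of vehicle wells; lower values mean less growth of the strain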
Details: S. cerevisiae deletion strains, growth OD, locus YNL248C, strain rpa49
Screen size: about 5,500 compounds; about 2,000 (36%) were called active. About 18% were inconclusive and are not listed. Cut-off read from the data, not from the text of the source: active = normalized growth mostly below about 0.91 (no sharp cut-off); inconclusive = no clear call, values can overlap the other calls; inactive = mostly above about 0.92. This is one part of the list.
Respond only with the outcome that fits, drawn from active, inactive

# outcome recorded in this test, key = C[C@H](CCC(=O)O)[C@H]1CCC2C3C(=O)CC4CC(=O)CC[C@]4(C)C3CC(=O)[C@@]21C (some centres not stated)
inactive

What outcome does the record of this test show for "NC1=NCCN1CC(=O)O" ?
inactive

Given "O=C(O)c1cc(O)c2c(c1)[C@@H]([C@H]1c3cc(C(=O)O)cc(O)c3C(=O)c3c(O[C@H]4O[C@H](CO)[C@@H](O)[C@H](O)[C@H]4O)cccc31)c1cccc(O[C@H]3O[C@H](CO)[C@@H](O)[C@H](O)[C@H]3O)c1C2=O" , state the outcome it received in this test.
inactive

Status in this test for "O=C(CC(=O)c1ccccc1)c1ccccc1" ?
active

How was CC(C)(C)NCC(O)c1ccc(O)c(CO)c1 (configuration not stated) classified in this test?
inactive

Which outcome was assigned to "NCC(=O)c1ccccc1" in this test?
inactive

State the result this test recorded for "CCN(CC)CCOC(=O)C1(C2CCCCC2)CCCCC1" .
inactive

I'd appreciate the recorded outcome for "CN(C)C(=O)Oc1cccc([N+](C)(C)C)c1" from this test.
inactive

// return assay outcome for CC(=O)O[C@H]1CCC2(C)C3=C(CCC2C1(C)C)[C@]1(C)CCC(C(C)CCC=C(C)C)[C@@]1(C)CC3 (some centres not stated)
inactive

How was CC(=O)O[C@@H]1CC2C(C)(C)[C@H](O)C=C[C@]2(C)C2CC[C@]3(C)C(=CC(=O)O[C@H]3c3ccoc3)[C@@]21C (some centres not stated) classified in this test?
inactive

Kindly provide the recorded test outcome for the following compound: "CN(C)[C@@H]1C(=O)C(C(=O)NCN2CCCC2)=C(O)[C@@]2(O)C(=O)C3=C(O)c4c(O)cccc4[C@@](C)(O)[C@H]3C[C@@H]12"
active

Which outcome was entered for the compound "CC(=O)Oc1ccc(/C=C/c2cc(OC(C)=O)cc(OC(C)=O)c2)cc1" in this test?
inactive

State the result this test recorded for CC(=O)OCC(=O)[C@@]1(O)[C@H](C)CC2C3CCC4=CC(=O)C=C[C@]4(C)[C@@]3(F)[C@@H](O)C[C@@]21C (some centres not stated) .
inactive

For "CC(=O)Oc1ccc(C(c2ccc(OC(C)=O)cc2)c2ccccn2)cc1" , which call appears in the assay record?
inactive

What call does the record list for CC(C)CCCC(C)C1CCC2C3C[C@@H](O)[C@@]4(O)C[C@@H](O)CC[C@]4(C)C3CC[C@]12C (some centres not stated) ?
inactive

Returns: the outcome recorded for "NC(=O)NC(=O)Cc1ccccc1" in this assay.
inactive

Dear all, I need the recorded test outcome for "Cc1scc2c1N(C(=O)CN1CCN(C)CC1)c1ccccc1NC2=O" , thank you.
inactive

Please indicate how the test categorized CC(C)CCCC(C)[C@H]1CCC2C3CC=C4C[C@@H](O)CC[C@]4(C)C3CC[C@@]21C (some centres not stated) .
inactive

Which result was noted for this compound in the test: CC(Cc1cccc(C(F)(F)F)c1)NCCOC(=O)c1ccccc1 (configuration not stated)
inactive

// return assay outcome for "CC1=CC(=O)c2c(O)cccc2C1=O"
active

Given NCC(N)C(=O)c1ccccc1 (configuration not stated) , state the outcome it received in this test.
inactive

Just curious, what result did "O=C1NC(O)=NC1(c1ccccc1)c1ccccc1" get here?
inactive

====

Test: chemical genetic growth profiling, strain panel (AID 1159580);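 note: tested at 20 µM; growth read once vehicle control cultures reached saturation at 30 °C; 1 = growth at the plate median or of vehicle wells; lower values mean less growth of the strain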
Settings: S. cerevisiae deletion strains, growth OD, locus YDR297W, strain sur2, hits give low values
In all, about 5,500 compounds went through this assay and about 2,000 (36%) were called active. About 18% were inconclusive and are not listed. This is one part of the list.
QUANTITY KIND: normalized growth
Answer field: number only, no words.

Value of normalized growth reported for the compound CC(C)CCCC(C)C1CCC2C3C[C@@H](O)[C@@]4(O)C[C@@H](O)CC[C@]4(C)C3CC[C@]12C (stereo partly drawn) is 0.986

normalized growth in this record for "O=C(O)c1ccc(S(=O)(=O)N(Cl)Cl)cc1" : 0.988

What the record says about "CC(=O)Oc1ccc(O)cc1" : normalized growth is 0.987

normalized growth recorded for this compound, CC(C)CCCC(C)[C@H]1CCC2C3CC=C4C[C@@H](O)CC[C@]4(C)C3CC[C@@]21C (stereo partly drawn) , is 0.985

Measured normalized growth, "NS(=O)(=O)c1cc2c(cc1Cl)NC(CSCc1ccccc1)=NS2(=O)=O" : 1.02

Reported normalized growth of "CN(C)CCCN1c2ccccc2CCc2ccc(Cl)cc21" : 1.01

Reported normalized growth of "Cc1cc(=O)oc2cc(O)c(O)cc12" : 0.995

Reported normalized growth ( CC(N=C(NC#N)Nc1ccncc1)C(C)(C)C (stereo not drawn) ) = 0.971

Briefly, normalized growth measured for "COc1ccc2cc(CCC(C)=O)ccc2c1" : 0.99

The recorded normalized growth for entry "CNCCCC12CCC(c3ccccc31)c1ccccc12" equals 0.975

// recorded normalized growth for "NC(=O)c1cccnc1" : 0.975

Query "Cc1nc(N)cc(C[n+]2csc(CCO)c2C)n1" yields normalized growth of 0.979

The compound identified as "CCN(CC)CCOC(=O)C1(C2CCCCC2)CCCCC1" registered its normalized growth at 0.99

What the record says about CC(C)(C)NCC(O)c1ccc(O)c(CO)c1 (stereo not drawn) : normalized growth is 1.01

Input "N=C(N)N" . Output normalized growth: 0.993

The value of normalized growth measured for the compound COc1ccc(C2Sc3ccccc3N(CCN(C)C)C(=O)C2OC(C)=O)cc1 (stereo not drawn) turned out to be 0.989

Form field normalized growth, entry "O=C(NCO)c1cccnc1" : 1.01

normalized growth recorded for this compound, "CCN(CC)CCOCCOC(=O)C1(c2ccccc2)CCCC1" , is 0.989

====

Assay: chemical genetic growth profiling, strain panel (AID 1159580);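 note: tested at 20 µM; growth read once vehicle control cultures reached saturation at 30 °C; 1 = growth at the plate median or of vehicle wells; lower values mean less growth of the strain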
Details: S. cerevisiae deletion strains, growth OD, locus YOR083W, strain WHI5 (second series), hits give low values
The whole screen tested about 5,500 compounds, of which about 2,000 (36%) were called active. Not shown: some 18% with an inconclusive outcome. Some of the results follow.
Task for the reader: assign each of the following molecules its reported normalized growth.
# respond with the number and nothing more

"C=C/C(C)=C/[C@@]1(C)SC(=O)C(C)=C1O" has a reported normalized growth of 0.999

Summary for this molecule, "O=c1[nH]c2cc(Cl)ccc2c(O)c1-c1ccc(Oc2ccccc2)cc1" : normalized growth is 0.99

Note to self: normalized growth recorded for "CN(C)CCCN1c2ccccc2Sc2ccccc21" was 0.98

====

Test: chemical genetic growth profiling, strain panel (AID 1159580);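 note: tested at 20 µM; growth read once vehicle control cultures reached saturation at 30 °C; 1 = growth at the plate median or of vehicle wells; lower values mean less growth of the strain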
Conditions: S. cerevisiae deletion strains, growth OD, locus YBR021W, strain FUR4
Screen size: about 5,500 compounds; about 2,000 (36%) were called active. About 18% were inconclusive and are not listed. No stated cut-off is given here; in the data, active means normalized growth mostly below about 0.91 (no sharp cut-off); inconclusive means no clear call, values can overlap the other calls; inactive means mostly above about 0.92. Some of the results follow.
Could you please pick one outcome from this set? active, inactive

Kindly provide the recorded test outcome for the following molecule: "COC(=O)c1c(OC)cc2c(c1C)Oc1c(Cl)c(OC(C)=O)c(Cl)c(C)c1C(=O)O2"
inactive

Lab log entry: Cc1c(C)c2c(c(C)c1O)CCC(C)(CCCC(C)CCCC(C)CCCC(C)C)O2 (stereo not drawn) — outcome as called in the assay?
inactive

GET /call?item= "O=C(NCO)c1cccnc1" returns the recorded outcome of this test.
inactive

Give the logged outcome of this assay for the following molecule: "N[C@@H](CCC(=O)N[C@@H](CS)C(=O)NCC(=O)O)C(=O)O"
inactive

Which outcome was entered for the molecule "CN(C)[C@@H]1C(=O)C(C(N)=O)=C(O)[C@@]2(O)C(=O)C3=C(O)c4c(O)ccc(Cl)c4[C@@](C)(O)[C@H]3C[C@@H]12" in this test?
inactive

Hi team, can someone confirm the assay call for "NS(=O)(=O)c1cc2c(cc1Cl)NC(CSCc1ccccc1)=NS2(=O)=O" ?
inactive

# lookup: test call for "CCCSc1ccc2nc(NC(=O)OC)[nH]c2c1"
active

Could you please tell me the result logged for "COC(=O)c1c(C)c2c(c(C)c1OC)OC(=O)c1c(C)c(Cl)c(OC)c(Cl)c1O2" in this assay?
inactive

Name the outcome recorded for "O=C(O)c1cccnc1" in the assay.
inactive

Recorded test outcome, item "NC(=O)NC(=O)Cc1ccccc1"
inactive

Answer briefly: the call reported for CN(C)C1C(=O)C(C(N)=O)=C(O)C2(O)C(=O)C3=C(O)c4c(O)ccc(Cl)c4C(C)(O)C3CC12 (stereo not drawn) in this assay.
inactive

Tell me the assay call for "CC(=O)N[C@@H](Cc1c[nH]c2ccccc12)C(N)=O" please.
inactive

Given "Nc1ccc(S(=O)(=O)NC(=O)c2ccccc2)cc1" , state the outcome it received in this test.
inactive
